- system: phosphorylated BTK in Ramos cells (Homo sapiens (Human), UniProt Q06187)
- Sequence (Q06187 whole entry): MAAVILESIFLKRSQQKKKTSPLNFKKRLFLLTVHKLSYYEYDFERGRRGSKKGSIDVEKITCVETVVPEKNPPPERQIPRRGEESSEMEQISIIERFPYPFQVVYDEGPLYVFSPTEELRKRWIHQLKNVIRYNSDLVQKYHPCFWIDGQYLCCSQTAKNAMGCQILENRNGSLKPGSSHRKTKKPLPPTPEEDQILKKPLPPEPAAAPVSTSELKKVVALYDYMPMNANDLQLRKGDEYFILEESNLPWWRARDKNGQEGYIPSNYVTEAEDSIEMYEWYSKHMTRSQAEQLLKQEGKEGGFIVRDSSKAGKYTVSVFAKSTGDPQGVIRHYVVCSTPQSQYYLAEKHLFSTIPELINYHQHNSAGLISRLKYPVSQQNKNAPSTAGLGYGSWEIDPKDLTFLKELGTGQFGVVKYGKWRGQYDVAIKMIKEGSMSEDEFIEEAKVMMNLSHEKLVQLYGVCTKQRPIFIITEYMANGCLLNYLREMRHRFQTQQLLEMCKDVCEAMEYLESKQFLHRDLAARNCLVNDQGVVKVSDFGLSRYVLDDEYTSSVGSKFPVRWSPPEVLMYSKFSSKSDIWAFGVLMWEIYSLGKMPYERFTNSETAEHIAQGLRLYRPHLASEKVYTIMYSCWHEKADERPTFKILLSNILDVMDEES
- protocol.summary: Determination of phosphorylated BTK in Ramos cells (BTK phospho-Y223 HTRF)
- protocol.conditions: anti-human IgM + hydrogen peroxide stimulation
measurement.type: IC50 (nM)

// worked examples, IC50 included
>  <molecule>
CC1Cc2cc3c(=O)n(-c4nccc(-c5cc(Nc6cc7n(n6)CCOC7)c(=O)n(C)c5)c4CO)ccn3c2C1 (stereo not drawn)

>  <system>
phosphorylated BTK in Ramos cells (Homo sapiens (Human), UniProt Q06187)

>  <unit.annotation>
nM

>  <endpoint.result>
38

$$$$
>  <molecule>
COC1CN(c2ccc(Nc3cc(-c4ccnc(-n5ccn6c7c(cc6c5=O)CC(C)(C)C7)c4CO)cn(C)c3=O)nn2)C1

>  <system>
phosphorylated BTK in Ramos cells (Homo sapiens (Human), UniProt Q06187)

>  <unit.annotation>
nM

>  <endpoint.result>
26

$$$$

A = Cn1cc(-c2ccnc(-n3ccn4c5c(cc4c3=O)CC(C)(C)C5)c2CO)cc(Nc2cn(CCF)nn2)c1=O
B = C[C@H]1CN(C2COC2)CCN1c1ccc(Nc2cc(-c3ccnc(-n4ncn5c6c(cc5c4=O)CC(C)(C)C6)c3CO)cn(C)c2=O)nc1
C = CCCn1cc(Nc2cc(-c3ccnc(-n4ccn5c6c(cc5c4=O)CC(C)(C)C6)c3CO)cn(C)c2=O)cn1
D = CCn1nc(-c2ccnc(-n3ccn4c5c(cc4c3=O)CC(C)(C)C5)c2CO)cc(Nc2ccc(N3CCN(C4COC4)C[C@@H]3C)cn2)c1=O
Thanks in advance: please rank these 4 entries by IC50, highest to lowest. Rank the items, then write their labels in that order.
C, D, A, B

====

- system: BTK recombinant protein (Homo sapiens (Human), UniProt Q06187)
- Sequence (Q06187 whole entry): as above
- protocol.summary: Determination of biochemical BTK (Z'-LYTE kinase assay)
measurement.type: IC50 (nM)

// worked examples, IC50 included
>  <smiles.code>
C[C@H]1CN(C2COC2)CCN1c1ccc(Nc2cc(-c3ccnc(-n4cnn5c6c(c(F)c5c4=O)CCCC6)c3CO)cn(C)c2=O)nc1

>  <unit.annotation>
nM

>  <endpoint.result>
29

$$$$
>  <smiles.code>
CC[C@H]1CN(C2COC2)CCN1c1ccc(Nc2cc(-c3ccnc(-n4ncn5c6c(cc5c4=O)CC(C)(C)C6)c3CO)cn(C)c2=O)nc1

>  <unit.annotation>
nM

>  <endpoint.result>
9

$$$$

a = C[C@H]1CN(C)CCN1c1ccc(Nc2cc(-c3ccnc(-n4ccn5c6c(cc5c4=O)CC(C)(C)C6)c3CO)cn(C)c2=O)nc1
b = C[C@H]1CN(C2COC2)CCN1c1ccc(Nc2cc(-c3ccnc(-n4ccn5c6c(cc5c4=O)CCCCC6)c3CO)cn(C)c2=O)nc1
c = Cn1cc(-c2ccnc(-n3ccn4c5c(cc4c3=O)CC(C)(C)C5)c2CO)cc(Nc2ccc(C3CCN(C4COC4)CC3)nn2)c1=O
d = Cn1cc(-c2ccnc(-n3ccn4c5c(cc4c3=O)CC(C)(C)C5)c2CO)cc(Nc2ccccn2)c1=O
Thanks in advance: please rank these 4 entries by IC50, highest to lowest. Rank the items, then write their labels in that order.
d, b, a, c
(d: 19 nM, b: 10 nM, a: 7 nM, c: 4 nM)

====

- system: phosphorylated BTK in Ramos cells (Homo sapiens (Human), UniProt Q06187)
- protocol.summary: Determination of phosphorylated BTK in Ramos cells (BTK phospho-Y223 HTRF)
- protocol.conditions: anti-human IgM + hydrogen peroxide stimulation
measurement.type: IC50 (nM)

// worked examples, IC50 included
>  <compound>
C[C@H]1CN(C(CO)CO)CCN1c1ccc(Nc2cc(-c3ccnc(-n4ccn5c6c(cc5c4=O)CC(C)(C)C6)c3CO)cn(C)c2=O)nc1

>  <unit.annotation>
nM

>  <IC50>
13

$$$$
>  <compound>
COCc1cc(Nc2cc(-c3ccnc(-n4ccn5c6c(cc5c4=O)CC(C)(C)C6)c3CO)cn(C)c2=O)nn1C

>  <unit.annotation>
nM

>  <IC50>
13

$$$$
>  <compound>
C[C@H]1CN(C2COC2)CCN1c1ccc(Nc2cc(-c3ccnc(-n4ccn5c6c(cc5c4=O)CC(C)(C)C6)c3CO)n[nH]c2=O)nc1

>  <unit.annotation>
nM

>  <IC50>
1

$$$$
>  <compound>
[2H]C(O)c1c(-c2cc(Nc3ccc(N4CCN(C5([2H])COC5)C[C@@H]4C)cn3)c(=O)n(C)c2)ccnc1-n1ccn2c3c(cc2c1=O)CC(C)(C)C3 (mixture of isomers)

>  <unit.annotation>
nM

>  <IC50>
2

$$$$
>  <compound>
C[C@H]1CN(C2COC2)C(=O)N1c1ccc(Nc2cc(-c3ccnc(-n4ccn5c6c(cc5c4=O)CC(C)(C)C6)c3CO)cn(C)c2=O)nc1

>  <unit.annotation>
nM

>  <IC50>
9

$$$$

1 = C[C@H]1CN(C2COC2)CCN1c1ccc(Nc2cc(-c3ccnc(-n4ccn5c(c(F)c6ccccc65)c4=O)c3CO)cn(C)c2=O)nc1
2 = CCn1cc(-c2ccnc(-n3ccn4c5c(cc4c3=O)CC(C)(C)C5)c2CO)cc(Nc2ccc(N3CCOC[C@@H]3C)nn2)c1=O
Of the two listed items, which has the higher IC50? First: 1 Second: 2 Please reply using the label of the selected record.
2

1 = Cn1cc(-c2ccnc(-n3ccn4c5c(cc4c3=O)CC(C)(C)C5)c2CO)cc(Nc2ccc(N3CCN(C4COC4)CC3(C)C)cn2)c1=O
2 = C[C@@H]1CN(c2ccc(Nc3cc(-c4ccnc(-n5ccn6c7c(cc6c5=O)CC(C)(C)C7)c4CO)cn(C)c3=O)nc2)[C@@H](C)CN1C1COC1
3 = C[C@H]1CN(C2COC2)CCN1c1ccc(Nc2cc(-c3ccnc(-n4ccn5c6c(cc5c4=O)CC(C)(C)C6)c3CO)cn3c(F)cnc23)nc1
4 = CCn1cc(-c2ccnc(-n3ccn4c5c(cc4c3=O)CC(C)(C)C5)c2CO)cc(Nc2ccc(N3CCN(C4COC4)C[C@@H]3C)cn2)c1=O
Thanks in advance: please rank these 4 entries by IC50, highest to lowest. Rank the items, then write their labels in that order.
3, 4, 1, 2
(3: 30 nM, 4: 17 nM, 1: 3 nM, 2: 1 nM)

I = C[C@@H]1CN(c2ccc(Nc3cc(-c4ccnc(-n5ncn6c7c(cc6c5=O)CC(C)(C)C7)c4CO)cn(C)c3=O)nc2)[C@@H](C)CN1C1COC1
II = Cn1cc(-c2ccnc(-n3ccn4c5c(cc4c3=O)CC(C)(C)C5)c2CO)cc(Nc2ccc(-c3ccc(C4COC4)cc3)cn2)c1=O
Of the two listed items, which has the higher IC50? First: I Second: II Please reply using the label of the selected record.
II
(II: 11 nM, I: 6 nM)

====

- system: BTK recombinant protein (Homo sapiens (Human))
- protocol.summary: Determination of biochemical BTK (Z'-LYTE kinase assay)
measurement.type: IC50 (nM)

>  <smiles.code>
[2H]C1(N2CCN(c3ccc(Nc4cc(-c5ccnc(-n6ccn7c8c(cc7c6=O)CC(C)(C)C8)c5CO)cn(C)c4=O)nc3)[C@@H](C)C2)COC1

>  <system>
BTK recombinant protein (Homo sapiens (Human))

>  <unit.annotation>
nM

>  <IC50>
7

$$$$
>  <smiles.code>
C[C@H]1CN(C2COC2)CCN1c1ccc(Nc2cc(-c3ccnc(-n4ncn5c6c(cc5c4=O)CCCC6)c3CO)cn(C)c2=O)nc1

>  <system>
BTK recombinant protein (Homo sapiens (Human))

>  <unit.annotation>
nM

>  <IC50>
16

$$$$
>  <smiles.code>
Cn1cc(-c2ccnc(-n3ccn4c5c(cc4c3=O)CC(C)(C)C5)c2CO)cc(Nc2cn(CC(F)(F)F)nn2)c1=O

>  <system>
BTK recombinant protein (Homo sapiens (Human))

>  <unit.annotation>
nM

>  <IC50>
9

$$$$
>  <smiles.code>
COCCN1CCN(c2ccc(Nc3cc(-c4ccnc(-n5ncn6c7c(cc6c5=O)CC(C)(C)C7)c4CO)cn(C)c3=O)nc2)[C@@H](C)C1

>  <system>
BTK recombinant protein (Homo sapiens (Human))

>  <unit.annotation>
nM

>  <IC50>
13

$$$$

I = Cn1cc(-c2ccnc(-n3ccn4c5c(cc4c3=O)CC(C)(C)C5)c2CO)cc(Nc2ccc(N[C@@H]3CC[C@@H](CO)OC3)cn2)c1=O
II = C[C@H]1CN(C2COC2)CCN1c1cnc(Nc2cc(-c3ccnc(-n4ncn5c6c(cc5c4=O)CC(C)(C)C6)c3CO)cn(C)c2=O)nc1
III = Cn1cc(-c2ccnc(-n3ccn4c5c(cc4c3=O)CC(C)(C)C5)c2CO)cc(Nc2ccc(F)cn2)c1=O
// ascending sort on recorded IC50 Rank the items, then write their labels in that order.
I, III, II

====

- system: phosphorylated BTK in Ramos cells (Homo sapiens (Human), UniProt Q06187)
- protocol.summary: Determination of phosphorylated BTK in Ramos cells (BTK phospho-Y223 HTRF)
- protocol.conditions: anti-human IgM + hydrogen peroxide stimulation
measurement.type: IC50 (nM)

// worked examples, IC50 included
>  <molecule>
C[C@@H]1CN(c2ccc(Nc3cc(-c4ccnc(-n5ccn6c7c(cc6c5=O)CC(C)(C)C7)c4CO)cn(C)c3=O)nn2)[C@@H](C)CN1C1COC1 [Compound 205]

>  <unit.annotation>
nM

>  <IC50>
15

$$$$
>  <molecule>
Cn1cc(-c2ccnc(-n3ncn4c5c(cc4c3=O)CC(C)(C)C5)c2CO)cc(Nc2cc3n(n2)CCN(C2CC2)C3)c1=O [Compound 171]

>  <unit.annotation>
nM

>  <IC50>
11

$$$$
>  <molecule>
COCCN(C)c1ccc(Nc2cc(-c3ccnc(-n4ccn5c6c(cc5c4=O)CC(C)(C)C6)c3CO)cn(C)c2=O)nc1 [Compound 50]

>  <unit.annotation>
nM

>  <IC50>
2

$$$$
>  <molecule>
CC1Cc2cc3c(=O)n(-c4nccc(-c5cc(Nc6ccc(N7CCN(C8COC8)C[C@@H]7C)cn6)c(=O)n(C)c5)c4CO)ccn3c2C1 (mixture of isomers) [Compound 160]

>  <unit.annotation>
nM

>  <IC50>
11

$$$$
>  <molecule>
CCn1cc(Nc2cc(-c3ccnc(-n4ccn5c6c(cc5c4=O)CC(C)(C)C6)c3CO)cn3ncnc23)nn1 [Compound 71]

>  <unit.annotation>
nM

>  <IC50>
6

$$$$

A = C[C@H]1CN(C2COC2)CCN1c1ccc(Nc2cc(-c3ccnc(-n4ncn5c6c(c(F)c5c4=O)CCCC6)c3CO)cn(C)c2=O)nc1 [Compound 186]
B = Cn1nc(Nc2cc(-c3ccnc(-n4ccn5c6c(cc5c4=O)CC(C)(C)C6)c3CO)cn(C)c2=O)cc1C(=O)N1CCOCC1 [Compound 99]
Lab log: flag the item ( A or B ) with the smaller IC50 figure. Please reply using the label of the selected record.
B
(B: 4 nM, A: 10 nM)

A = C[C@H]1CN(C2COC2)CCN1c1ccc(Nc2cc(-c3ccnc(-n4ncn5c6c(cc5c4=O)CCCCC6)c3CO)cn(C)c2=O)nc1 [Compound 150]
B = Cn1cc(-c2ccnc(-n3ccn4c5c(cc4c3=O)CCC5)c2CO)cc(Nc2cc3n(n2)CCN(C2COC2)C3)c1=O [Compound 134]
C = CC1c2cc(Nc3cc(-c4ccnc(-n5ncn6c7c(cc6c5=O)CC(C)(C)C7)c4CO)cn(C)c3=O)nn2CCN1C1COC1 (stereo not shown) [Compound 118]
Thanks in advance: please rank these 3 entries by IC50, highest to lowest. Rank the items, then write their labels in that order.
B, A, C
(B: 54 nM, A: 12 nM, C: 1 nM)
